I'd be grateful if you could share measured IC50 for these entries.
- test system: KRAS WT (Homo sapiens, UniProt P01116+P62937)
- Sequence (P01116 1-169 isoform P01116-2 limits assumed): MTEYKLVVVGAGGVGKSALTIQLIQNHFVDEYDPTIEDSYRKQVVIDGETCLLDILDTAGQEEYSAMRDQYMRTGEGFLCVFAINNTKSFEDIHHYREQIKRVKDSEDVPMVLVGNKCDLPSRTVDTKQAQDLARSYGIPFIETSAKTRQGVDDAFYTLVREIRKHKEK
- Sequence (P62937 whole entry): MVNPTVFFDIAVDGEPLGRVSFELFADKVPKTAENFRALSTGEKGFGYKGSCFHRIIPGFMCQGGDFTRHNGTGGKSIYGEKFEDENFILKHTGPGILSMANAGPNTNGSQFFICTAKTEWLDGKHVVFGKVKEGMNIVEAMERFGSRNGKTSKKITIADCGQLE
- test name: Ras-Raf disruption / FRET / MOA assay (BRAF RBD)
- Assay type: biochemical
- condition summary: Ras-Raf disruption, with Cyclophilin A; read-out: KRAS WT FRET data IC50

Consider the following illustrative entries.
compound: CCn1c(-c2cccnc2[C@H](C)OC)c2c3cc(ccc31)-c1cccc(c1)C[C@H](NC(=O)[C@H](C(C)C)N(C)C(=O)[C@H]1CC[C@H](N=C=NCc3ccccc3OC)C1)C(=O)N1CCC[C@H](N1)C(=O)OCC(C)(C)C2 [Example 76]
test system: KRAS WT (Homo sapiens, UniProt P01116+P62937)
value observed: 1000 to 10000 nM

compound: CCn1c(-c2cnccc2COC)c2c3cc(ccc31)-c1cccc(c1)C[C@H](NC(=O)[C@H](C(C)C)N(C)C(=O)CCN=C=Nc1ccccc1OC)C(=O)N1CCC[C@H](N1)C(=O)OCC(C)(C)C2 [20 A and B]
test system: KRAS WT (Homo sapiens, UniProt P01116+P62937)
value observed: > 10000 nM

compound: CCn1c(-c2cccnc2[C@H](C)OC)c2c3cc(ccc31)-c1cccc(c1)C[C@H](NC(=O)[C@H](C(C)C)N(C)C(=O)[C@H]1CC[C@H](N=C=NC(C)C)C1)C(=O)N1CCC[C@H](N1)C(=O)OCC(C)(C)C2 [Example 124]
test system: KRAS WT (Homo sapiens, UniProt P01116+P62937)
value observed: 1000 to 10000 nM

State the recorded IC50 for every item in the following list.
1. CCn1c(-c2cnccc2COC)c2c3cc(ccc31)-c1cccc(c1)C[C@H](NC(=O)[C@H](C(C)C)N(C)C(=O)CC(C)(C)N=C=Nc1ccc(OC)cc1)C(=O)N1CCC[C@H](N1)C(=O)OCC(C)(C)C2 [64 A and B]
2. CCn1c(-c2cnccc2COC)c2c3cc(ccc31)-c1cccc(c1)C[C@H](NC(=O)[C@H](C(C)C)N(C)C(=O)CCN=C=NCc1c(OC)cccc1OC)C(=O)N1CCC[C@H](N1)C(=O)OCC(C)(C)C2 [62 A and B]
3. CCn1c(-c2cccnc2[C@H](C)OC)c2c3cc(ccc31)-c1cc(O)cc(c1)C[C@H](NC(=O)[C@H](C(C)C)N(C)C(=O)c1ccc([C@@H]3CN3)nc1)C(=O)N1CCC[C@H](N1)C(=O)OCC(C)(C)C2 [Example 87]
4. CCn1c(-c2cccnc2[C@H](C)OC)c2c3cc(ccc31)-c1cc(O)cc(c1)C[C@H](NC(=O)[C@H](C(C)C)N(C)C(=O)CN(C)S(=O)(=O)[C@@H]1CN1C)C(=O)N1CCC[C@H](N1)C(=O)OCC(C)(C)C2 (single isomer, unassigned) [Example 92]

Response line:
["> 10000 nM", "1000 to 10000 nM", "100 to 1000 nM", "10 to 100 nM"]

State the recorded IC50 for every item in the following list.
1. CCn1c(-c2cccnc2[C@H](C)OC)c2c3cc(ccc31)-c1cccc(c1)C[C@H](NC(=O)[C@H](C(C)C)N(C)C(=O)[C@H]1C[C@H](N=C=NCCOC)C1)C(=O)N1CCC[C@H](N1)C(=O)OCC(C)(C)C2 [Example 78]
2. CCn1c(-c2cccnc2[C@H](C)OC)c2c3cc(ccc31)-c1cc(O)cc(c1)C[C@H](NC(=O)[C@H](C(C)C)N1CCC3(CN(C(=O)[C@@H]4CN4)C3)C1=O)C(=O)N1CCC[C@H](N1)C(=O)OCC(C)(C)C2 [Example 109]
3. CCn1c(-c2cccnc2[C@H](C)OC)c2c3cc(ccc31)-c1cc(O)cc(c1)C[C@H](NC(=O)[C@H](C(C)C)N(C)C(=O)c1nc(NC(=O)[C@H]3CN3)cs1)C(=O)N1CCC[C@H](N1)C(=O)OCC(C)(C)C2 (atropisomer, axis not shown) [Example 212]

Response line:
1000 to 10000 nM
10 to 100 nM
100 to 1000 nM

State the recorded IC50 for every item in the following list.
1. CCn1c(-c2cccnc2[C@H](C)OC)c2c3cc(ccc31)-c1cc(O)cc(c1)C[C@H](NC(=O)[C@H](C(C)C)N(C)C(=O)[C@H]1CCN(C(=O)[C@H]3CN3)C1)C(=O)N1CCC[C@H](N1)C(=O)OCC(C)(C)C2 (single isomer, unassigned) [Example 43A]
2. CCn1c(-c2cnccc2COC)c2c3cc(ccc31)-c1cccc(c1)C[C@H](NC(=O)[C@H](C(C)C)N(C)C(=O)[C@@H]1CCC(N=C=Nc3ccc(OC)cc3)C1)C(=O)N1CCC[C@H](N1)C(=O)OCC(C)(C)C2 (stereo partly shown) [70 A and B]

Response line:
10 to 100 nM
> 10000 nM

State the recorded IC50 for every item in the following list.
1. CCn1c(-c2cccnc2[C@H](C)OC)c2c3cc(ccc31)-c1cc(O)cc(c1)C[C@H](NC(=O)[C@H](C(C)C)N(C)C(=O)C1CN(S(=O)(=O)[C@H]3CN3C)C1)C(=O)N1CCC[C@H](N1)C(=O)OCC(C)(C)C2 (single isomer, unassigned) [Example 117]
2. CCn1c(-c2cccnc2[C@H](C)OC)c2c3cc(ccc31)-c1csc(n1)C[C@H](NC(=O)[C@H](C(C)C)N(C)C(=O)N1CC(N(C)C(=O)[C@H]3CN3)C1)C(=O)N1CCC[C@H](N1)C(=O)OCC(C)(C)C2 [Example 218]
3. CCn1c(-c2cccnc2[C@H](C)OC)c2c3cc(ccc31)-c1cccc(c1)C[C@H](NC(=O)[C@H](C(C)C)N(C)C(=O)[C@H]1C[C@H](N=C=NCc3ccccc3OC)C1)C(=O)N1CCC[C@H](N1)C(=O)OCC(C)(C)C2 [Example 77]

Response line:
100 to 1000 nM
100 to 1000 nM
1000 to 10000 nM

Prompt line: Report IC50, nothing else, for this compound: CCn1c(-c2cccnc2[C@H](C)OC)c2c3cc(ccc31)-c1cc(O)cc(c1)C[C@H](NC(=O)[C@H](C(C)C)N(C)C(=O)[C@H]1CCN(C(=O)C3CO3)C1)C(=O)N1CCC[C@H](N1)C(=O)OCC(C)(C)C2 (stereo partly shown) [Example 330]
Response line: 10 to 100 nM
